System: K. pneumoniae OXA-48
condition context: Table S3; […] MH at pH 8.5
Where a SMILES comes first, the peptide text is derived from it. [ ]: non-standard residue; d: D form. Nleu = CC(C)CNCC(=O)O; Nlys = NCCCCNCC(=O)O
measure: MIC K. pneumoniae OXA-48 (µg/mL)
Field: numeric (µg/mL). Do not append units.

Some entries whose results are on file:
molecule	MIC K. pneumoniae OXA-48, µg/mL
CC(C)C[C@H](NC(=O)[C@H](CC(C)C)NC(=O)[C@H](CC(C)C)NC(=O)[C@@H](CCCCN)NC(=O)[C@H](CC(C)C)NC(=O)[C@H](CC(C)C)NC(=O)[C@@H](CCCCN)NC(=O)[C@H](CC(C)C)NC(=O)[C@H](CC(C)C)NC(=O)[C@@H](CCCCN)NC(=O)[C@H](N)CCCCN)C(N)=O [ln69, kkLLkLLkLLL, reference compound] (H-[dK][dK]LL[dK]LL[dK]LLL-NH2)	2
CC(C)C[C@H](NC(=O)[C@H](CC(C)C)NC(=O)[C@H](CC(C)C)NC(=O)[C@H](CCCCN)NC(=O)[C@H](CC(C)C)NC(=O)[C@H](CC(C)C)NC(=O)CN(CCCCN)C(=O)[C@H](CC(C)C)NC(=O)[C@H](CC(C)C)NC(=O)CN(CCCCN)C(=O)CNCCCCN)C(N)=O [EB6, kkLLkLLKLLL] (H-[Nlys][Nlys]LL[Nlys]LLKLLL-NH2)	8
CC(C)C[C@H](NC(=O)CN(CC(C)C)C(=O)[C@H](CC(C)C)NC(=O)CN(CCCCN)C(=O)[C@H](CC(C)C)NC(=O)CN(CC(C)C)C(=O)[C@H](CCCCN)NC(=O)CN(CC(C)C)C(=O)[C@H](CC(C)C)NC(=O)CN(CCCCN)C(=O)[C@@H](N)CCCCN)C(N)=O [EB9, KkLlKlLkLlL] (H-K[Nlys]L[Nleu]K[Nleu]L[Nlys]L[Nleu]L-NH2)	32

Moving on to the next molecule.
query: What measured MIC K. pneumoniae OXA-48 is associated with CC(C)CN(CC(N)=O)C(=O)CN(CC(C)C)C(=O)CN(CC(C)C)C(=O)CN(CCCCN)C(=O)CN(CC(C)C)C(=O)CN(CC(C)C)C(=O)CN(CCCCN)C(=O)CN(CC(C)C)C(=O)CN(CC(C)C)C(=O)CN(CCCCN)C(=O)CNCCCCN [EB11, kkllkllklll] (H-[Nlys][Nlys][Nleu][Nleu][Nlys][Nleu][Nleu][Nlys][Nleu][Nleu][Nleu]-NH2) on K. pneumoniae OXA-48?
result: 32

###

Test system: A. baumannii ATCC19606
condition context: Table S2; full MH, pH 8.5
Where a SMILES comes first, the peptide text is derived from it. [ ]: non-standard residue; d: D form. Nleu = CC(C)CNCC(=O)O; Nlys = NCCCCNCC(=O)O
Items are presented alongside their recorded MIC A. baumannii ATCC19606 Full MH 8.5.

molecule	MIC A. baumannii ATCC19606 Full MH 8.5
CC(C)C[C@H](NC(=O)[C@H](CC(C)C)NC(=O)[C@H](CC(C)C)NC(=O)[C@@H](CCCCN)NC(=O)[C@H](CC(C)C)NC(=O)[C@H](CC(C)C)NC(=O)[C@@H](CCCCN)NC(=O)[C@H](CC(C)C)NC(=O)[C@H](CC(C)C)NC(=O)[C@@H](CCCCN)NC(=O)[C@H](N)CCCCN)C(N)=O [ln69, kkLLkLLkLLL, reference compound] (H-[dK][dK]LL[dK]LL[dK]LLL-NH2)	8 to 16 µg/mL

query: # query: MIC A. baumannii ATCC19606 Full MH 8.5 of entry CC(C)CN(CC(N)=O)C(=O)CN(CC(C)C)C(=O)CN(CC(C)C)C(=O)CN(CCCCN)C(=O)CN(CC(C)C)C(=O)CN(CC(C)C)C(=O)CN(CCCCN)C(=O)CN(CC(C)C)C(=O)CN(CC(C)C)C(=O)CN(CCCCN)C(=O)CNCCCCN [EB11, kkllkllklll] (H-[Nlys][Nlys][Nleu][Nleu][Nlys][Nleu][Nleu][Nlys][Nleu][Nleu][Nleu]-NH2)
result: > 32 µg/mL

query: // returns reported MIC A. baumannii ATCC19606 Full MH 8.5 for input CC(C)C[C@H](NC(=O)CN(CC(C)C)C(=O)[C@H](CC(C)C)NC(=O)CN(CCCCN)C(=O)[C@H](CC(C)C)NC(=O)CN(CC(C)C)C(=O)[C@H](CCCCN)NC(=O)CN(CC(C)C)C(=O)[C@H](CC(C)C)NC(=O)CN(CCCCN)C(=O)[C@@H](N)CCCCN)C(N)=O [EB9, KkLlKlLkLlL] (H-K[Nlys]L[Nleu]K[Nleu]L[Nlys]L[Nleu]L-NH2)
result: > 32 µg/mL

###

Test system: E. cloacae
condition context: Table S3; […] MH at pH 8.5
Where a SMILES comes first, the peptide text is derived from it. [ ]: non-standard residue; d: D form. Nleu = CC(C)CNCC(=O)O; Nlys = NCCCCNCC(=O)O
measure: MIC E. cloacae (µg/mL)
# unit: µg/mL | format: bare number

query: Which MIC E. cloacae reading was recorded for the compound CC(C)C[C@H](NC(=O)CN(CC(C)C)C(=O)[C@H](CC(C)C)NC(=O)CN(CCCCN)C(=O)[C@H](CC(C)C)NC(=O)CN(CC(C)C)C(=O)[C@H](CCCCN)NC(=O)CN(CC(C)C)C(=O)[C@H](CC(C)C)NC(=O)CN(CCCCN)C(=O)[C@@H](N)CCCCN)C(N)=O [EB9, KkLlKlLkLlL] (H-K[Nlys]L[Nleu]K[Nleu]L[Nlys]L[Nleu]L-NH2) ?
result: 16

###

Overview of reported MIC P. aeruginosa ZEM9A across a group of compounds:
Test system: ZEM9A (clinical MDR P. aeruginosa isolate)
condition context: Table S3; […] MH at pH 8.5
Where a SMILES comes first, the peptide text is derived from it. [ ]: non-standard residue; d: D form. Nleu = CC(C)CNCC(=O)O; Nlys = NCCCCNCC(=O)O
Field format: number, assumed µg/mL, no unit text.

compound	MIC P. aeruginosa ZEM9A, µg/mL
CC(C)CN(CC(N)=O)C(=O)CN(CC(C)C)C(=O)CN(CC(C)C)C(=O)CN(CCCCN)C(=O)CN(CC(C)C)C(=O)CN(CC(C)C)C(=O)CN(CCCCN)C(=O)CN(CC(C)C)C(=O)CN(CC(C)C)C(=O)CN(CCCCN)C(=O)CNCCCCN [EB11, kkllkllklll] (H-[Nlys][Nlys][Nleu][Nleu][Nlys][Nleu][Nleu][Nlys][Nleu][Nleu][Nleu]-NH2)	4

query: What does the data say about its MIC P. aeruginosa ZEM9A? Entry: CC(C)C[C@H](NC(=O)[C@H](CC(C)C)NC(=O)[C@H](CC(C)C)NC(=O)[C@H](CCCCN)NC(=O)[C@H](CC(C)C)NC(=O)[C@H](CC(C)C)NC(=O)CN(CCCCN)C(=O)CN(CC(C)C)C(=O)CN(CC(C)C)C(=O)CN(CCCCN)C(=O)CNCCCCN)C(N)=O [EB5, kkllkLLKLLL] (H-[Nlys][Nlys][Nleu][Nleu][Nlys]LLKLLL-NH2)
result: 2

###

Tested on: S. aureus COL (MRSA)
condition context: COL, 4 h, pH 7.4
Where a SMILES comes first, the peptide text is derived from it. [ ]: non-standard residue; d: D form. Nleu = CC(C)CNCC(=O)O; Nlys = NCCCCNCC(=O)O
measure: MIC S. aureus COL (MRSA), full MH at pH 7.4 (ug/mL)
# number only, unit ug/mL dropped from output

query: // fetch S. aureus COL (MRSA) MIC S. aureus COL (MRSA), full MH at pH 7.4 for CC(C)C[C@H](NC(=O)[C@H](CC(C)C)NC(=O)[C@H](CC(C)C)NC(=O)[C@H](CCCCN)NC(=O)[C@H](CC(C)C)NC(=O)[C@H](CC(C)C)NC(=O)CN(CCCCN)C(=O)CN(CC(C)C)C(=O)CN(CC(C)C)C(=O)CN(CCCCN)C(=O)CNCCCCN)C(N)=O [EB5, kkllkLLKLLL] (H-[Nlys][Nlys][Nleu][Nleu][Nlys]LLKLLL-NH2)
result: 8

###

Tested on: K. pneumoniae NCTC418
condition context: NCTC418, 4 h, pH 7.4
Where a SMILES comes first, the peptide text is derived from it. [ ]: non-standard residue; d: D form. Nleu = CC(C)CNCC(=O)O; Nlys = NCCCCNCC(=O)O
measure: MIC K. pneumoniae NCTC418, full MH at pH 7.4

compound	system	result value
CC(C)C[C@H](NC(=O)[C@H](CCCCN)NC(=O)[C@@H](N)CCCCN)C(=O)N[C@@H](CC(C)C)C(=O)N[C@@H](CCCCN)C(=O)N(CC(=O)N(CC(=O)N(CCCCN)CC(=O)N(CC(=O)N(CC(=O)N(CC(N)=O)CC(C)C)CC(C)C)CC(C)C)CC(C)C)CC(C)C [EB4, KKLLKllklll] (H-KKLLK[Nleu][Nleu][Nlys][Nleu][Nleu][Nleu]-NH2)	K. pneumoniae NCTC418	>32 ug/mL
CC(C)C[C@H](NC(=O)[C@H](CC(C)C)NC(=O)[C@H](CCCCN)NC(=O)[C@@H](N)CCCCN)C(=O)N[C@@H](CCCCN)C(=O)N[C@@H](CC(C)C)C(=O)N[C@@H](CC(C)C)C(=O)N[C@@H](CCCCN)C(=O)N(CC(=O)N(CC(=O)N(CC(N)=O)CC(C)C)CC(C)C)CC(C)C [EB3] (H-KKLLKLLK[Nleu][Nleu][Nleu]-NH2)	K. pneumoniae NCTC418	>32 ug/mL
CC(C)C[C@H](NC(=O)[C@H](CC(C)C)NC(=O)[C@H](CC(C)C)NC(=O)[C@H](CCCCN)NC(=O)[C@H](CC(C)C)NC(=O)[C@H](CC(C)C)NC(=O)CN(CCCCN)C(=O)CN(CC(C)C)C(=O)CN(CC(C)C)C(=O)CN(CCCCN)C(=O)CNCCCCN)C(N)=O [EB5, kkllkLLKLLL] (H-[Nlys][Nlys][Nleu][Nleu][Nlys]LLKLLL-NH2)	K. pneumoniae NCTC418	>32 ug/mL

Next, consider the following compound.
query: Could you tell me which MIC K. pneumoniae NCTC418, full MH at pH 7.4 is on file for CC(C)C[C@H](NC(=O)[C@H](CCCCN)NC(=O)CNCCCCN)C(=O)N[C@@H](CC(C)C)C(=O)N[C@@H](CCCCN)C(=O)N[C@@H](CC(C)C)C(=O)N[C@@H](CC(C)C)C(=O)N[C@@H](CCCCN)C(=O)N[C@@H](CC(C)C)C(=O)N[C@@H](CC(C)C)C(=O)N(CC(N)=O)CC(C)C [EB1] (H-[Nlys]KLLKLLKLL[Nleu]-NH2; N-terminus assumed) ?
result: 8 ug/mL
